tgt: recombinant BRD4 BD2 (Homo sapiens, UniProt O60885)
Construct: for recombinant BRD4 BD1 and BRD4 BD2 proteins
assay_method_text: Competitive fluorescence-polarization (FP) binding assay, BRD4 BD2; note: probe 1.5 nM
condition_summary: competitive FP assay; protein 6 nM, probe […]; read-out: IC50 (nM) BRD4 BD2
Strictly below 60 nM in IC50: yes (1). Otherwise: no (0).

# smiles_representation, assigned_label
measured = [
    ("COc1cc2c(cc1-c1c(C)noc1C)[nH]c1nc(C)nc(Nc3ccccc3C(C)C)c12", "yes (1)"),
    ("COc1cc2c(cc1-c1c(C)noc1C)[nH]c1nc(C)nc(Nc3c(-c4ccccc4)noc3C)c12", "yes (1)"),
    ("COc1cc2c3c(N(C)c4cc(C5CC5)nn4C4CN(C)C4)nc(C)nc3n(C)c2cc1-c1c(C)noc1C", "yes (1)"),
    ("COc1cc2c(cc1-c1c(C)noc1C)[nH]c1nc(C)nc(Nc3cccc(C)n3)c12", "no (0)"),
    ("CCn1nc(C2CC2)c(C)c1Nc1nc(C)nc2[nH]c3cc(-c4c(C)noc4C)c(OC)cc3c12", "yes (1)"),
    ("COCc1nc(Nc2cc(C3CC3)nn2C)c2c(n1)[nH]c1cc(-c3c(C)noc3C)c(OC)cc12", "yes (1)"),
    ("COc1cc2c(cc1-c1c(C)noc1C)[nH]c1nc(C)nc(Nc3noc(C)c3C)c12", "no (0)"),
    ("COc1cc2c(cc1-c1c(C)noc1C)[nH]c1nc(C)nc(Nc3cn(C)nc3C(F)(F)F)c12", "no (0)"),
    ("COc1cc2c(cc1-c1c(C)noc1C)[nH]c1nc(C)nc(Nc3cc(C(F)(F)F)nn3C(C)C)c12", "yes (1)"),
    ("COc1cc2c(cc1-c1c(C)noc1C)[nH]c1nc(C)nc(Nc3n[nH]c4ccccc34)c12", "yes (1)"),
    ("COc1cc2c(cc1-c1c(C)noc1C)[nH]c1nc(C)nc(Nc3cccc4nc(C)ccc34)c12", "yes (1)"),
    ("COc1cc2c(cc1-c1c(C)noc1C)[nH]c1nc(C)nc(Nc3c(C(C)C)nn(C)c3C(C)C)c12", "yes (1)"),
    ("COc1cc2c(cc1-c1c(C)noc1C)[nH]c1nc(C)nc(Nc3cccc(C(F)(F)F)c3)c12", "no (0)"),
    ("COc1cc2c(cc1-c1c(C)noc1C)[nH]c1nc(C)nc(Nc3c(C(C)C)nn(C)c3C)c12", "yes (1)"),
    ("CCn1nc(C2CC2)cc1Nc1nc(C)nc2[nH]c3cc(-c4c(C)noc4C)c(OC)cc3c12", "yes (1)"),
    ("COc1cc2c(cc1-c1c(C)noc1C)[nH]c1nc(C)nc(Nc3cc(C)cc(C)c3)c12", "yes (1)"),
    ("COc1cc2c(cc1-c1c(C)noc1C)[nH]c1nc(C)nc(Nc3ccnn3C3CCCC3)c12", "yes (1)"),
    ("COc1cc2c(cc1-c1c(C)noc1C)[nH]c1nc(C)nc(Nc3c[nH]nc3-c3ccccc3)c12", "yes (1)"),
    ("CCn1nc2c(c1Nc1nc(C)nc3[nH]c4cc(-c5c(C)noc5C)c(OC)cc4c13)CCC2", "yes (1)"),
    ("COc1cc2c(cc1-c1c(C)noc1C)[nH]c1nc(C(C)C)nc(Nc3nn(C)c4ccccc34)c12", "no (0)"),
    ("COc1cc2c(cc1-c1c(C)noc1C)[nH]c1nc(C)nc(Nc3c(C(C)C)cnn3C)c12", "yes (1)"),
    ("COc1cc2c(cc1-c1c(C)noc1C)[nH]c1nc(C)nc(Nc3nn(C)c4ncccc34)c12", "yes (1)"),
    ("COc1cc2c(cc1-c1c(C)noc1C)[nH]c1nc(C)nc(Oc3ccnc4ccccc34)c12", "no (0)"),
    ("COc1cc2c(cc1-c1c(C)noc1C)[nH]c1nc(C)nc(Nc3c(-c4ccccc4)nn(C(C)C)c3C)c12", "yes (1)"),
    ("COc1cc2c(cc1-c1c(C)noc1C)[nH]c1nc(C)nc(Nc3cccc4ccncc34)c12", "yes (1)"),
    ("CCc1nn(C)cc1Nc1nc(C)nc2[nH]c3cc(-c4c(C)noc4C)c(OC)cc3c12", "yes (1)"),
    ("COc1cc2c(cc1-c1c(C)noc1C)[nH]c1nc(C)nc(Nc3cccc(C)c3)c12", "yes (1)"),
    ("COc1cc2c(cc1-c1c(C)noc1C)[nH]c1nc(C)nc(Nc3c(C)nn(C(C)C)c3C)c12", "no (0)"),
    ("COc1cc2c(cc1-c1c(C)noc1C)[nH]c1nc(C)nc(Nc3ccnn3C)c12", "yes (1)"),
    ("COc1cc2c(cc1-c1c(C)noc1C)[nH]c1nc(C)nc(Sc3cccc(C(C)(C)C)c3)c12", "no (0)"),
]
